tested on: PDR Acinetobacter baumannii YQ4; experiment: microbe, parasite or virus in culture; assay type: cell-based; details: Acinetobacter baumannii; Table 2, agent alone, PDR A. baumannii strain YQ4; unit not in the table, μg/ml; read-out: MIC
Quick reference for MIC among some compounds
assay metric: MIC (µg/mL)

1. CN(C)[C@@H]1C(O)=C(C(N)=O)C(=O)[C@@]2(O)C(O)=C3C(=O)c4c(O)cccc4[C@@](C)(O)[C@H]3C[C@@H]12	1020
2. C[C@@H](O)[C@H]1C(=O)N2C(C(=O)O)=C(S[C@@H]3CN[C@H](C(=O)N(C)C)C3)[C@H](C)[C@H]12	32
3. CN(C)c1cc(NC(=O)CNC(C)(C)C)c(O)c2c1C[C@H]1C[C@H]3[C@H](N(C)C)C(O)=C(C(N)=O)C(=O)[C@@]3(O)C(O)=C1C2=O	32
